study system: T1, recombinant human ASM protein (human, UniProt P17405 47-630)
T1 construct: Recombinant human ASM in solution; also called acid sphingomyelinase (ASM) protein
T1 sequence: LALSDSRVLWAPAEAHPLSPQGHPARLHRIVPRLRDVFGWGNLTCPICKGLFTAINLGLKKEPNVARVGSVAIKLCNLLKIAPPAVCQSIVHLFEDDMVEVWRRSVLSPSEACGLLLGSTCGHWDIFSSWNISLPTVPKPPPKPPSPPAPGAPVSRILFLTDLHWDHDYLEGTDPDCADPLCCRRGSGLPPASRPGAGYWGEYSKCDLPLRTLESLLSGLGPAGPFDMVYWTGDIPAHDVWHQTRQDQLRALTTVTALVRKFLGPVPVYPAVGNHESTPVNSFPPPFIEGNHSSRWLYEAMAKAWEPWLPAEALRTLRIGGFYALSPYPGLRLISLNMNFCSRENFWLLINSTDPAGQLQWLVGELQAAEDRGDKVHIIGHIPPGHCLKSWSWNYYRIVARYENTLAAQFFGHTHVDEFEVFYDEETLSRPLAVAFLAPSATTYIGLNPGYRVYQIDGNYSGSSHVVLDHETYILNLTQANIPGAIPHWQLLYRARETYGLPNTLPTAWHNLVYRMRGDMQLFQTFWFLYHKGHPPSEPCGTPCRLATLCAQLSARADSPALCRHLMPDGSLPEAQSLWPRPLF
assay explanation: BLI (Octet), antibody on AHC sensor
// values below are reported pKd
Kindly note that pKd refers to -log10 of the concentration in mol/L and answer with the value alone.

#9104 (antibody, V domains shown, Parental antibody; also called antibody #9104) VH: EVQLLESGGGLVQPGGSLRLSCAASGFTFSNYYMSWVRQAPGKGLEWVSGIYYGSGNIYYADSVKGRFTISRDNSKNTLYLQMNSLRAEDTAVYYCARDTPGFDYWGQGTLVTVSS VL: QSVLTQPPSASGTPGQRVTISCTGSSSNIGNNAVNWYQQLPGTAPKLLIYYDSHRPSGVPDRFSGSKSGTSASLAISGLRSEDEADYYCGAWDYSLSAYVFGGGTKLTVLG | 8.65

Continue with the binder presented below.
Req: Endpoint output: pKd of #9104v-H10 (antibody, human IgG4 S228P, lambda, V domains shown, Full-length IgG, lambda) VH: EVQLLESGGGLVQPGGSLRLSCAASGFTFSNYYMSWVRQAPGKGLEWVSGIYYGNGIPYYADSVKDRFTISRDNSKNTLYLQMNSLRAEDTAVYYCARDTPGFDYWGQGTLVTVSS VL: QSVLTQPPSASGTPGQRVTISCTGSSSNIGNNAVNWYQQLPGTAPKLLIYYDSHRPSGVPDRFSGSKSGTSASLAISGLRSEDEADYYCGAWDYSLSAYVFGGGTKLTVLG . Value?
Resp: 9.19

// data source = patent US20260201064A1
